test.system: CDK9/CyclinT1 (Homo sapiens, UniProt P50750)
Sequence (P50750 whole entry): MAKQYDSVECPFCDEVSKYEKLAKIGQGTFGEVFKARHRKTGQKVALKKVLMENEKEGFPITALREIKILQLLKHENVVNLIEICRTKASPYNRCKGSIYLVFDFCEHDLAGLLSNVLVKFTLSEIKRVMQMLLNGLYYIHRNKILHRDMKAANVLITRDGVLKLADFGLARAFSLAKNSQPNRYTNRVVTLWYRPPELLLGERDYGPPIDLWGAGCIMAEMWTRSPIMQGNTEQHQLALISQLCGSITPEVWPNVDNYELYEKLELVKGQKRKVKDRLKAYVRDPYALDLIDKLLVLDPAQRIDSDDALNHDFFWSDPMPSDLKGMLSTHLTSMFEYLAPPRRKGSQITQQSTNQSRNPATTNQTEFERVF
Sequence (O60563 whole entry partner): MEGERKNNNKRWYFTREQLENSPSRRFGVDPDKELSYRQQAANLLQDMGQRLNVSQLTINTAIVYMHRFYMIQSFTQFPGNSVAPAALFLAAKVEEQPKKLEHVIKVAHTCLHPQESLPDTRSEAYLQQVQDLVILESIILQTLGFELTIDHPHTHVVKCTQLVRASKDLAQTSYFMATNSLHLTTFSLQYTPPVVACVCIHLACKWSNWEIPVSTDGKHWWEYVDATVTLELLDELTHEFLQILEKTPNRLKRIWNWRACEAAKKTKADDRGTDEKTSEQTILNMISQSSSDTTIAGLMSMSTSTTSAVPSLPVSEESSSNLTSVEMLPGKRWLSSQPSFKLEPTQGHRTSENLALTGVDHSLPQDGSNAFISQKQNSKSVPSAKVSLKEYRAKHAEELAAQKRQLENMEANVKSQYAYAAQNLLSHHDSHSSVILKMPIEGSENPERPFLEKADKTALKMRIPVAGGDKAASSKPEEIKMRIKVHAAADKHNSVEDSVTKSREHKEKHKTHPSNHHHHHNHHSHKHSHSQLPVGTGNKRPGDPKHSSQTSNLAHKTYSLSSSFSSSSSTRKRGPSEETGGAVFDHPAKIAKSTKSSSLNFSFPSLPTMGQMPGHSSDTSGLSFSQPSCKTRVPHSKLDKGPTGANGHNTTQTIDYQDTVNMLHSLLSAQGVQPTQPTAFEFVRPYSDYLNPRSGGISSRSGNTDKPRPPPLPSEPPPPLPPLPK
assay.name: CDK9/T1 ADPGlo kinase assay
study.conditions: CDK9/CyclinT1 6 nM, ATP 10 microM, PDKtide 40 microM, 120 min RT
pIC50: −log10 of the molar value.
Items are presented alongside their recorded pIC50.

{"molecule": "O=C(NCC(F)(F)F)c1ccc(Nc2nc(-c3c(F)cccc3F)nc3ccnn23)cc1", "pIC50": "> 6.00"}
{"molecule": "CN1CCC(N2CCC(n3cc(Nc4nc(-c5c(F)cccc5F)nc5ccnn45)cn3)CC2)CC1", "pIC50": "> 6.70"}
{"molecule": "Fc1cccc(F)c1-c1nc(Nc2cnn(C3CCN(CC4CC4)CC3)c2)n2nccc2n1", "pIC50": "> 6.70"}
{"molecule": "Fc1cccc(F)c1-c1nc(NC2CCC(N3CCOCC3)CC2)n2ncc(C(F)(F)F)c2n1 (centres unmarked)", "pIC50": "> 6.70"}
{"molecule": "CCOc1cc(Nc2nc(-c3c(F)cccc3F)nc3ccnn23)ccc1N1CCN(C)CC1", "pIC50": "> 6.00"}
{"molecule": "CN1CCC(Nc2nc(-c3c(F)cccc3F)nc3c(Cl)cnn23)CC1", "pIC50": "> 7.70"}
{"molecule": "CCOc1cc(Nc2nc(-c3c(F)cccc3Cl)nc3ccnn23)ccc1C1=CCN(C)CC1", "pIC50": "> 6.00"}
{"molecule": "Fc1cccc(F)c1-c1nc(Nc2cnn(C3CCN(C4COC4)CC3)c2)n2nccc2n1", "pIC50": "> 6.00"}
{"molecule": "CN(CCO)C1CCC(Nc2nc(-c3c(F)cccc3F)nc3c(Cl)cnn23)CC1 (centres unmarked)", "pIC50": "> 7.70"}
{"molecule": "Cc1cc(F)c(-c2nc(NC3CCC(N(C)C)CC3)n3ncc(Cl)c3n2)c(F)c1 (centres unmarked)", "pIC50": "> 6.70"}
{"molecule": "CCOc1cc(Nc2nc(-c3c(F)cccc3F)nc3ccnn23)ccc1C1=CCN(C)CC1", "pIC50": "> 6.00"}
{"molecule": "N[C@H]1CC[C@@H](Nc2nc(-c3c(F)cccc3F)nc3c(Cl)cnn23)CC1", "pIC50": "> 6.70"}
{"molecule": "Fc1cccc(F)c1-c1nc(N[C@H]2CC[C@H](N3CCCCC3)CC2)n2ncc(Cl)c2n1", "pIC50": "> 7.70"}
{"molecule": "Fc1cccc(F)c1-c1nc(Nc2cnn(C3CCN(C4CCOCC4)CC3)c2Cl)n2nccc2n1", "pIC50": "> 6.00"}
{"molecule": "FCCN[C@H]1CC[C@H](Nc2nc(-c3c(F)cccc3F)nc3c(Cl)cnn23)CC1", "pIC50": "> 7.70"}
{"molecule": "O=C(NCC(F)(F)F)c1ccc(Nc2nc(-c3c(F)cccc3Cl)nc3ccnn23)cc1", "pIC50": "> 6.00"}
{"molecule": "COC(=O)N1CCC(n2cc(Nc3nc(-c4c(F)cccc4F)nc4ccnn34)cn2)CC1", "pIC50": "> 6.00"}

====

test.system: CDK2/cyclin A1 (Homo sapiens, UniProt P24941)
Construct: purchased Invitrogen Ltd., Paisley, UK (SelectScreen service)
assay.name: CDK2/cyclin A1 LanthaScreen (SelectScreen), second list
Assay type: binding
study.conditions: second list under the same heading; duplicate, averaged
pIC50: −log10 of the molar value.

{"compound": "FCCN[C@H]1CC[C@H](Nc2nc(-c3c(F)cccc3F)nc3c(Cl)cnn23)CC1", "test.system": "CDK2/cyclin A1 (Homo sapiens, UniProt P24941)", "pIC50": "> 6.70"}
{"compound": "N[C@H]1CC[C@H](Nc2nc(-c3c(F)cccc3F)nc3c(Cl)cnn23)CC1", "test.system": "CDK2/cyclin A1 (Homo sapiens, UniProt P24941)", "pIC50": "> 7.70"}
{"compound": "COCCNC1CCC(Nc2nc(-c3c(F)cccc3F)nc3c(Cl)cnn23)CC1 (stereo not shown)", "test.system": "CDK2/cyclin A1 (Homo sapiens, UniProt P24941)", "pIC50": "> 6.70"}
{"compound": "Fc1cccc(F)c1-c1nc(N[C@H]2CC[C@H](N3CCOCC3)CC2)n2ncc(Cl)c2n1", "test.system": "CDK2/cyclin A1 (Homo sapiens, UniProt P24941)", "pIC50": "> 6.70"}
